# METHOD_NOTES: Example 16: interaction potential, Mucinex and Sudafed 12 Hour alone or together, 3-way crossover
# Type: in vivo, human
# TEST_SETTINGS: human, in vivo, po, 120 mg, Pseudoephedrine Cmax, median; Treatment C: 120 mg pseudoephedrine HCl along with 1200 mg guaifenesin (Sudafed 12 Hour + Mucinex), overnight fast
Where a name gives a salt, the structure may show the parent alone.
EXPERIMENTAL_ENDPOINT: Cmax (ng/mL)
One number for each entry, in ng/mL.

Please fill in: Cmax reported for CN[C@@H](C)[C@@H](O)c1ccccc1 [Pseudoephedrine, Pseudoephedrine hydrochloride] = 286

Taken from patent US8012504B2.
